Target: BRD4-BD1 (Homo sapiens (Human), UniProt O60885)
Assay: BRD4-H4 tetraacetylated peptide inhibition AlphaScreen
Format: binding
Conditions: GST-BRD4-BD1 (aa 44-168) with biotinylated Acetyl-Histone H4 (Lys5, 8, 12, 16) peptide
pIC50: −log10 of the molar value.
property.measured: pIC50

Data request: Please look up its pIC50: Cc1nc(-c2cn3c(C)nnc3c(C)n2)n(Cc2ccccc2)c1C [II-3]
Data returned: 7.51

Data request: Now consider Cc1nnc2c(NC(C)C)nc(-c3nc4ccccc4n3Cc3ccccn3)cn12 [III-33] and answer again.
Data returned: 7.70

Data request: Input CNc1nc(-c2nc3cnc(N4CCOCC4)cc3n2Cc2cccnc2)cn2c(C)nnc12 [III-49]
Data returned: 8.40

Data request: Next molecule up: Cc1nnc2c(NC(C)C)nc(-c3nc4cnc(C(C)C)cc4n3Cc3ccccn3)cn12 [III-40]
Data returned: 7.74

Data request: Same lookup for CNc1nc(-c2nc3cnc(N4CCN(C)CC4)cc3n2Cc2ccncc2)cn2c(C)nnc12 [III-53] , please.
Data returned: 7.92

(A) Cc1ccc2nc(-c3cn4c(C)nnc4c(NC(C)C)n3)n(Cc3ccccn3)c2c1 [III-35]
(B) CNc1nc(-c2nc3cnc(N4CCN(C)CC4)nc3n2Cc2ccccc2)cn2c(C)nnc12 [III-11]
(C) CNc1nc(-c2cn(C)nc2Cc2ccccc2)cn2c(C)nnc12 [Example I-1]
(D) Cc1nnc2c(NC(C)C)nc(-c3nc4cnc(N5CCN(C)CC5)cc4n3Cc3ccccc3)cn12 [III-18]
Data request: rank_up(items): orders items by reported pIC50 in ascending numerical order. # answer = labels listed in requested order
Data returned: C, D, A, B
